# Experimental Target: HIV-1 integrase (purified recombinant HIV-1 subtype C IN) (Human immunodeficiency virus type 1 group M subtype C, UniProt Q75002)
# Construct: Recombinant HIV-1 subtype CIN was assembled on to the pre-processed donor DNA
# Sequence (Q75002 1152-1439): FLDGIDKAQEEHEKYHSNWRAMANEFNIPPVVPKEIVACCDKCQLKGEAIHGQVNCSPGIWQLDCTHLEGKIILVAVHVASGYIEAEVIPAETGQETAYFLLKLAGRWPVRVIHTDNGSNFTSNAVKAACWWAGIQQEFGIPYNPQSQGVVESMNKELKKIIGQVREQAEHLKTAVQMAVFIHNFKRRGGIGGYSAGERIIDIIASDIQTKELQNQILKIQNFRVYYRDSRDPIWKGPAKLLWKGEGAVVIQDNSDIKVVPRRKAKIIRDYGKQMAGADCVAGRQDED
# Test Protocol: HIV-1 Integrase strand transfer inhibition assay
# Type: biochemical
# Experimental Setup: read-out: Assembly IC50 (anti-HIV-1 integrase activity); mean ± SD; '-' in Table 2 = no inhibition detected
pIC50: −log10 of the molar value.
Outcome Measure: pIC50

Consider the compound shown here: COc1ccc(C(c2ccc(O)cc2)[C@@H](C(=O)c2ccc(O)cc2O)c2coc3cc(OC)ccc3c2=O)cc1 (stereo partly shown) What is its recorded pIC50?
< 4.70

* * *

# Experimental Target: HIV-1 integrase (purified recombinant HIV-1 subtype C IN) (Human immunodeficiency virus type 1 group M subtype C, UniProt Q75002)
# Construct: Recombinant HIV-1 subtype CIN was assembled on to the pre-processed donor DNA
# Test Protocol: HIV-1 Integrase strand transfer inhibition assay
# Format: biochemical
# Experimental Setup: read-out: Assembly IC50 (anti-HIV-1 integrase activity)
Outcome Measure: pIC50
// field semantics: pIC50 = negative decimal log of concentration (mol/L)

Consider the compound shown here: O=C(c1ccc(O)cc1O)[C@@H](c1coc2cc(O)ccc2c1=O)C(c1ccc(O)cc1)c1ccc(O)cc1 [Compound 1] What is its recorded pIC50?
7.33

Hello, the source for this data is paper PMC9414862, in case you need it.
